# System: freshly isolated dendritic cells (CD11c+ splenocytes)
# protocol-text: Dendritic cell (DC) assay: IL-12 release
# Format: cell-based, BALB/c mice
# condition-parameters: tested for synergism and inhibition
measurement-name: DC/mIL12 Release

INSERT INTO results (molecule, observed_measurement) VALUES
  ('IL-1β: interleukin (protein, UniProt P10749 118-269, looked up) Interleukin-1 beta: VPIRQLHYRLRDEQQKSLVLSDPYELKALHLNGQNINQQVIFSMSFVQGEPSNDKIPVALGLKGKNLYLSCVMKDGTPTLQLESVDPKQYPKKKMEKRFVFNKIEVKSKVEFESAEFPNWYISTSQAEHKPVFLGNNSGQDIIDFTMESVSS', '−');
